The origin of these recorded values is PubChem BioAssay (NCI).

system: MDA-MB-468 breast; assay: NCI-60 one-dose screen, 48 h (100 = growth as untreated, 0 = no growth, -100 = all killed); details: 10 µM unless noted
Compounds without any hit were thinned out: in the full panel of roughly 83,000, 20% have a hit.
Listed here: items and their measured growth.
Lab book: enter the figure in %, no units written.

Worked cases, growth given:
molecule=O=C(Nc1cccc(C(F)(F)F)c1)Oc1ccc(Cl)c2cccnc12 measurement_unit=% recorded_measurement=-27.2
molecule=COc1ccc(OC)c(CCn2cncc2-c2c[nH]c3ccc(Cl)cc23)c1 measurement_unit=% recorded_measurement=-14.9
molecule=CC[C@]12C=CCN3CC[C@@]4(c5ccc(OC)cc5N(C)[C@H]4[C@@](O)(C(=O)OC)[C@@H]1OC(=O)CCC(=O)N[C@@H](Cc1c[nH]c4ccccc14)C(=O)OC)[C@@H]32 measurement_unit=% recorded_measurement=-20.8
molecule=Clc1ccc2[nH]c3c(NCCCN4CCOCC4)ncnc3c2c1 measurement_unit=% recorded_measurement=33.7
molecule=CCOC(=O)c1cnc2c(C)cccc2c1Nc1ccc(C(C)=O)cc1 measurement_unit=% recorded_measurement=-71.2

## Task Query: growth; subject: `CCOC(=O)c1ccc(C(C)(C)C)cc1`
## Result 107

## Task Moving on to the next molecule: `CCCCCn1sc(=O)n(Cc2ccc(CNC(=O)OCc3ccc4c(Cl)cc(Cl)c(O)c4n3)cc2)c1=O`
## Result 59.8

====

system: MDA-MB-468 breast; experiment: NCI-60 one-dose screen, 48 h (100 = growth as untreated, 0 = no growth, -100 = all killed); conditions: 10 µM unless noted
This is part of a sample that, as a whole, favours compounds with a hit. Of some 83,000 tested, about 20% had one in any assay.
Measured growth by item
Kindly answer with a numeric value in %, unit omitted.

molecule=Clc1ccc(/C=C/c2ccccn2)c(Cl)c1 recorded_measurement=29.3
molecule=C[C@@H](C(=O)O)c1ccc2c3cc(Cl)ccc3n(Cc3cc(=O)oc4ccc(Cl)cc34)c2c1 recorded_measurement=113
molecule=COc1cc(NCC(=O)Nc2cc(Nc3cccc(C(F)(F)F)c3)ncn2)c(Cl)c(OC)c1Cl recorded_measurement=101
molecule=CCCCCCCCCCCCNC(=S)N/N=C/c1ccccc1O recorded_measurement=53.1
molecule="CCC12CCC3c4ccc(O)cc4CCC3C1CC(O)C2O (stereo not given)" recorded_measurement=58.4

Now for a further molecule.
## Task Fill in the blank: the reported growth of `CCOC(=O)n1cc(-c2nonc2-c2cn(C)c3ccccc23)c2ccccc21` is ____.
## Result 13.1

====

tested on: MDA-MB-468 breast; test: NCI-60 one-dose screen, 48 h (100 = growth as untreated, 0 = no growth, -100 = all killed); conditions: 10 µM unless noted
The panel holds about 83,000 compounds, 20% with a hit somewhere; the sample as a whole holds those more often. Calls of active or inactive are those of the source. The calls were made as follows: active = growth percent below 10; inactive = the rest.
Readout type: growth

molecule=Nc1nc(N)c(-c2ccc(Cl)cc2)c(/C=C/c2ccc([N+](=O)[O-])cc2)n1 assayed_system="MDA-MB-468 breast" recorded_measurement="64.7% (inactive)"
molecule=Cc1nc2ccc(-n3ncc(C(=O)c4cc5ccccc5[nH]4)c3N)cc2[nH]1 assayed_system="MDA-MB-468 breast" recorded_measurement="68.2% (inactive)"
molecule=COc1ccc2nc(NC(=O)Nc3c(F)cccc3F)sc2c1 assayed_system="MDA-MB-468 breast" recorded_measurement="96.1% (inactive)"
molecule=Cc1nc([P+](c2ccccc2)(c2ccccc2)c2ccccc2)c(N2CCCCC2)o1 assayed_system="MDA-MB-468 breast" recorded_measurement="0.108% (active)"
molecule="NCC(=O)NC(CC(=O)O)C(=O)O (stereo unspecified)" assayed_system="MDA-MB-468 breast" recorded_measurement="102% (inactive)"
molecule=COc1ccc(Nc2ccc3ccccc3c2)cc1 assayed_system="MDA-MB-468 breast" recorded_measurement="-2.03% (active)"
molecule=COc1ccc(-c2cc(C(=O)N=Nc3c(O)[nH]c4ccccc34)no2)cc1 assayed_system="MDA-MB-468 breast" recorded_measurement="106% (inactive)"
molecule=CCOC(=O)NNc1cccc(Cl)c1 assayed_system="MDA-MB-468 breast" recorded_measurement="98.2% (inactive)"

## Task What growth appears in the records for this molecule with MDA-MB-468 breast? `Cc1cccc(Cl)c1NC(=O)c1cnc(Nc2cc(N3CCOCC3)cc(S(C)(=O)=O)c2)s1`
## Result 26.7% (inactive)

## Task `C#CCNC(=O)CC[C@@H](C)[C@H]1CC[C@H]2[C@@H]3CC[C@@H]4CC(=O)CC[C@]4(C)[C@H]3CC[C@]12C` ?
## Result -19.7% [100 µM] (active)

====

test system: MDA-MB-468 breast; assay: NCI-60 one-dose screen, 48 h; details: 10 µM unless noted
This is part of a sample that, as a whole, favours compounds with a hit. Of some 83,000 tested, about 20% had one in any assay. Activity calls are given as the source filed them. Rule for the calls: active = growth percent below 10; inactive = the rest.
Respond using exactly one of the listed classes: label 1 = active, label 0 = inactive

molecule="Clc1ccc(C2CC(c3cccc(Nc4ccncc4)c3)=NN2c2ccccc2)cc1 (stereo unspecified)" group_label="label 0"
molecule=Nc1ccc(SSc2ccc(N)cc2)cc1 group_label="label 0"
molecule=Clc1ccc2nc(CI)c(CI)nc2c1 group_label="label 0"
molecule=COc1ccc(-c2csc(NC(=O)c3ccc(Cc4n[nH]c(=O)c5cccnc45)cc3)n2)cc1 group_label="label 0"
molecule="O=S(=O)(Nc1ncccn1)c1ccc(NC2Nc3nc4ccccc4nc3S2)cc1 (stereo unspecified)" group_label="label 0"

Note: attention shifts to another entry.
## Task Give the logged outcome of this assay for the following molecule: `CC(C)[O-].CC(C)[O-].CN(CCN(C)Cc1cc(F)cc(F)c1[O-])Cc1cc(F)cc(F)c1[O-].[Ti+4]`
## Result label 1

====

test system: RXF 393 renal; assay: NCI-60 one-dose screen, 48 h; conditions: 10 µM
This is part of a sample that, as a whole, favours compounds with a hit. Of some 83,000 tested, about 20% had one in any assay. Calls of active or inactive are those of the source. Rule for the calls: active = growth percent below 10; inactive = the rest.
Write down the outcome that applies. Available outcomes: active, inactive

compound=COc1ccc(Cn2cc(C#N)c(N)c2C(C)=O)c(OC)c1 assayed_system="RXF 393 renal" group_label=inactive

## Task I'd appreciate the recorded outcome for `Nc1nnc(-c2c[nH]c3ncc(Br)cc23)c(-c2c[nH]c3ccc(Br)cc23)n1` from this test.
## Result active

## Task Next: Cc1ccc2sc3c(c2c1)Oc1nc[nH]c(=O)c1C3c1cccc(F)c1 (centres undefined)
## Result inactive

## Task `O=C(CSc1nc2ccccc2c(=O)n1-c1ccc(Cl)cc1)Nc1ccc(-c2nc3ccc([N+](=O)[O-])cc3[nH]2)cc1` ?
## Result active

## Task Request: `COc1ccc(-n2c(SCC(=O)NNS(=O)(=O)c3ccccc3)nc3ccc(Cl)cc3c2=O)cc1`
## Result inactive

## Task Now try `O=C(CN1CCN(c2ncnc3c2cnn3-c2ccccc2)CC1)Nc1ccc(Br)cc1` .
## Result inactive

## Task Then COc1ccc(C2OC[C@@]3(C)C4CC[C@]5(C)C(CC=C6C7CC(C)(C)CC[C@]7(C(=O)O)CC[C@]65C)[C@@]4(C)C[C@@H](O)[C@@H]3O2)cc1 (some centres undefined) ?
## Result inactive

## Task Now consider `Cc1ccc(COc2ccc(NC(=O)Nc3ccc(Cl)c(C(F)(F)F)c3)cc2)cc1` and answer again.
## Result inactive

## Task Continue with `Cn1cc(-c2nc(N)nnc2-c2c[nH]c3ccccc23)c2cc(Br)cnc21`
## Result active

====

system: MDA-MB-468 breast; assay: NCI-60 one-dose screen, 48 h; conditions: 10 µM unless noted
The panel holds about 83,000 compounds, 20% with a hit somewhere; the sample as a whole holds those more often. Calls of active or inactive are those of the source. Rule for the calls: active = growth percent below 10; inactive = the rest.
Hi! Could you answer with just one of these? active, inactive

Known results for compounds:
smiles_text=COc1ccc2c(c1)[nH]c(=O)c1c3cccnc3cn21 group_label=active
smiles_text=COc1ccc2nc(-n3nc(C)cc3C)c(-n3nc(C)cc3C)nc2c1 group_label=inactive
smiles_text=CCCCCCCC/C=C\CCCCCCCCOc1ccccc1CC(=O)NCC[N+](C)(C)C group_label=inactive
smiles_text=COc1cccc(/C=N/NC(=O)c2ccccc2N2CCCC2)c1O group_label=active
smiles_text=CCCCCCc1nc2nc(Cl)c(Cl)nc2[nH]1 group_label=inactive

Kindly review the next compound as well.
## Task Assay result, entry `CC(=O)Nc1ccc(O)c(C)c1` — outcome?
## Result inactive

====

test system: MDA-MB-468 breast; experiment: NCI-60 one-dose screen, 48 h (100 = growth as untreated, 0 = no growth, -100 = all killed); conditions: 10 µM unless noted
The panel holds about 83,000 compounds, 20% with a hit somewhere; the sample as a whole holds those more often.
Overview of recorded growth for various compounds
Note: unit % is implicit; provide only the numeric part.

The following compounds have reported results that may help.
compound=Cc1cc(C(=O)c2ccccc2)cc(C)c1O readout_type=growth measurement_unit=% recorded_measurement=111
compound="O=CN1N=C(c2ccc(Cl)cc2)CC1c1cccc(Nc2ccnc3cc(Cl)ccc23)c1 (stereo not given)" readout_type=growth measurement_unit=% recorded_measurement=-0.854

## Task # get_value(readout='growth', item= `S=C(Nc1ccccc1)c1ccccn1` )
## Result 101

## Task And for `Fc1ccc(-c2cc3nc(C(Cl)Cl)nc(-c4ccc(Cl)cc4)n3n2)cc1` ?
## Result -76.3

## Task For `COC(=O)[C@]12CC[C@@H](C)[C@H](C)[C@@H]1C1=CC[C@@H]3[C@@]4(C)C(C=O)=C[C@@](C)(CO)[C@@H]4[C@H](O)C[C@@]3(C)[C@]1(C)CC2` then?
## Result -12
